The measurements presented in this section are drawn from patent US10590140B2.

This section presents molecules with their documented Ki values.
Molecular target: human norepinephrine transporter (NET) (Homo sapiens (Human))
Sequence (P23975 whole entry): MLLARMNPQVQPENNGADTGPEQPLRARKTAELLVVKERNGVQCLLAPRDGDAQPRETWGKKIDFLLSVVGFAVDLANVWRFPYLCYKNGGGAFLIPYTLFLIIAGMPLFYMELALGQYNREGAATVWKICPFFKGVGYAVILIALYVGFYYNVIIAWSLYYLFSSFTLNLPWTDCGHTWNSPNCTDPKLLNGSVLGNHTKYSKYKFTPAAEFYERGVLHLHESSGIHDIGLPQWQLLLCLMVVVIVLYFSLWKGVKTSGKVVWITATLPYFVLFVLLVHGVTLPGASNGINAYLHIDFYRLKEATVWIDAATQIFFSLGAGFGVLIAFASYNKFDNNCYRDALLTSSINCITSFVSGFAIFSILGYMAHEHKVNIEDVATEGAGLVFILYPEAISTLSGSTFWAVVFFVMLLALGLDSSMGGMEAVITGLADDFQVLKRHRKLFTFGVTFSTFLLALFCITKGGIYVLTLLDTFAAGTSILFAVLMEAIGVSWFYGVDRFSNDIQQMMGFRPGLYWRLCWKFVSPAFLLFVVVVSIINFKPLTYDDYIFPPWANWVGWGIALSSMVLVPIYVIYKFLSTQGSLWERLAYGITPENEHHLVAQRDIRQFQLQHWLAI
Assay: Binding assay to human norepinephrine transporter (NET) ([3H]-Nisoxetin)
Conditions: Table 2, dual compounds; [3H]-Nisoxetin binding

Noted for `CCNc1ncc2c(n1)N(C)CCN(c1cccc(-n3cc(CN(C)CCc4ccccc4)cn3)c1)C2=O` : its Ki reads 100 to 500 nM

Noted for CNCCC(Oc1cccc(N2CCN(C)c3cc(C)ncc3C2=O)c1)c1cccs1 (stereo not drawn) : its Ki reads 100 to 500 nM

Noted for `CCNc1ncc2c(n1)N(C)CCN(c1cccc(OCCN(C)CCc3ccccc3)c1)C2=O` : its Ki reads 100 to 500 nM

Noted for CNCC(OCc1ccc(N2CCN(C)c3nc(SC)ncc3C2=O)cc1)c1ccccc1 (stereo not drawn) : its Ki reads < 100 nM

Noted for CCNc1ncc2c(n1)N(C)CCN(c1ccc(COC(CNC)c3ccccc3)cc1)C2=O (stereo not drawn) : its Ki reads < 100 nM
